Origin of values: patent US20250154144A1

target: FLT3 (Homo sapiens); assay: RBC HotSpot Kinase Assay, FLT3; conditions: FLT3 IC50
Sequence (P36888 610-943 limits assumed): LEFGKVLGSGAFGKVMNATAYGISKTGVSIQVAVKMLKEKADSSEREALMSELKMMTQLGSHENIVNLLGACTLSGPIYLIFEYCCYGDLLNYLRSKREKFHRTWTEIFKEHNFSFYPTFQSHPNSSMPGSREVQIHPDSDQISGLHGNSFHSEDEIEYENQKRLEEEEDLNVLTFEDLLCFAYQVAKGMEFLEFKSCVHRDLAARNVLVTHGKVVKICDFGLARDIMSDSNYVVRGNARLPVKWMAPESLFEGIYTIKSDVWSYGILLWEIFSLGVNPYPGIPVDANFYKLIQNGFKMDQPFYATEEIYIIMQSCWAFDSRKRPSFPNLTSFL
QUANTITY NAME: IC50 (nM)
Response body: numeric value in nM, unit text excluded.

| COMPOUND | IC50 [nM] |
| --- | --- |
| CC(O)(c1cn2c(-c3cncc(N[C@@H]4CCCNC4)n3)cnc2cn1)C(F)(F)F (single isomer, unassigned) [Compound 73] | 8 |

Please look at the following compound next.
Enquiry: Notebook entry, FLT3 (Homo sapiens) assay: IC50 of FC(F)Oc1ccn2c(-c3cncc(N[C@H]4CNC[C@@H]4F)n3)cnc2c1 = ?
Return: 1

---

system: THP1 cells; assay: Combination drug screening, Cell Titer Glo, 10 × 10 matrix, THP1 cells; assay type: cell-based; details: THP1 cells, 10 × 10; combination with Trametinib
QUANTITY NAME: Excess HSA Score
Answer with the value's number alone.

# example entries with known answers
| COMPOUND | ASSAY SYSTEM | Excess HSA Score |
| --- | --- | --- |
| COc1cc2ncc(-c3ccnc(N[C@H]4CNCC[C@@H]4F)n3)n2cc1C(C)(C)O | THP1 cells | −226.2 |
| COc1ccn2c(-c3ccnc(N[C@H]4CNC[C@@H]4F)n3)cnc2c1 | THP1 cells | −880.8 |
| COc1cc2ncc(-c3cncc(N[C@H]4CNCC[C@@H]4F)n3)n2nc1C1CC1 | THP1 cells | −416.7 |

Please look at the following compound next.
Enquiry: Look up Excess HSA Score for this compound: CC(O)(c1cn2c(-c3ccnc(N[C@H]4CNCC[C@@H]4F)n3)cnc2cn1)C(F)(F)F (single isomer, unassigned)
Return: 354.3
